The following are reported Ki results, target or system UniProtKB P35372.
Sequence (P35372 whole entry): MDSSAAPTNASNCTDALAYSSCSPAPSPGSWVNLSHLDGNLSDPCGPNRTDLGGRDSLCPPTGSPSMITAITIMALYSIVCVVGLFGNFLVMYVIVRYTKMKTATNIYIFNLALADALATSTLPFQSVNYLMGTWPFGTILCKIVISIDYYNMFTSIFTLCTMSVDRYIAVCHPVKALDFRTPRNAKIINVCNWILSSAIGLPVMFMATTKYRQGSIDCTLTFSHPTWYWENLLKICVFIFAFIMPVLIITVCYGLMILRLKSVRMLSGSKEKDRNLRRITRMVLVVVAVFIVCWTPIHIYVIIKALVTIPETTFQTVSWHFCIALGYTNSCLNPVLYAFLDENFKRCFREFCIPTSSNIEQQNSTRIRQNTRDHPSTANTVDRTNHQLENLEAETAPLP
Returns: string containing the number followed by the unit.

Prompt: Write Ki of O=S(=O)(c1ccccc1)N1CCC23c4c5ccc(O)c4OC2c2[nH]c4ccccc4c2CC3(O)C1C5 (stereo not drawn) [9c] ; system used: UniProtKB P35372
Response: 20.5 µM

Prompt: Write Ki of O=S(=O)(CCc1ccccc1)N1CCC23c4c5ccc(O)c4OC2c2[nH]c4ccccc4c2CC3(O)C1C5 (stereo not drawn) [9e] ; system used: UniProtKB P35372
Response: 1.4 µM

Prompt: Write Ki of CS(=O)(=O)N1CCC23c4c5ccc(O)c4OC2c2[nH]c4ccccc4c2CC3(O)C1C5 (stereo not drawn) [9a] ; system used: UniProtKB P35372
Response: 10.1 µM
